biological target: Rap guanine nucleotide exchange factor 4 (Homo sapiens) (UniProt Q8WZA2); experiment: Validation qHTS for agonist of cAMP-regulated guanine nucleotide exchange factor 4 (EPAC2); details: EPAC2 Rap1B BODIPY-GDP exchange, fluorescence; hits give high values;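 further: exchange makes BODIPY-GDP fluorescence drop when released from Rap1B; series mostly up to about 150 µM; on the % scale 0 is the no-effect control and ±100 the full control effect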
Sequence (Q8WZA2 whole entry, looked up): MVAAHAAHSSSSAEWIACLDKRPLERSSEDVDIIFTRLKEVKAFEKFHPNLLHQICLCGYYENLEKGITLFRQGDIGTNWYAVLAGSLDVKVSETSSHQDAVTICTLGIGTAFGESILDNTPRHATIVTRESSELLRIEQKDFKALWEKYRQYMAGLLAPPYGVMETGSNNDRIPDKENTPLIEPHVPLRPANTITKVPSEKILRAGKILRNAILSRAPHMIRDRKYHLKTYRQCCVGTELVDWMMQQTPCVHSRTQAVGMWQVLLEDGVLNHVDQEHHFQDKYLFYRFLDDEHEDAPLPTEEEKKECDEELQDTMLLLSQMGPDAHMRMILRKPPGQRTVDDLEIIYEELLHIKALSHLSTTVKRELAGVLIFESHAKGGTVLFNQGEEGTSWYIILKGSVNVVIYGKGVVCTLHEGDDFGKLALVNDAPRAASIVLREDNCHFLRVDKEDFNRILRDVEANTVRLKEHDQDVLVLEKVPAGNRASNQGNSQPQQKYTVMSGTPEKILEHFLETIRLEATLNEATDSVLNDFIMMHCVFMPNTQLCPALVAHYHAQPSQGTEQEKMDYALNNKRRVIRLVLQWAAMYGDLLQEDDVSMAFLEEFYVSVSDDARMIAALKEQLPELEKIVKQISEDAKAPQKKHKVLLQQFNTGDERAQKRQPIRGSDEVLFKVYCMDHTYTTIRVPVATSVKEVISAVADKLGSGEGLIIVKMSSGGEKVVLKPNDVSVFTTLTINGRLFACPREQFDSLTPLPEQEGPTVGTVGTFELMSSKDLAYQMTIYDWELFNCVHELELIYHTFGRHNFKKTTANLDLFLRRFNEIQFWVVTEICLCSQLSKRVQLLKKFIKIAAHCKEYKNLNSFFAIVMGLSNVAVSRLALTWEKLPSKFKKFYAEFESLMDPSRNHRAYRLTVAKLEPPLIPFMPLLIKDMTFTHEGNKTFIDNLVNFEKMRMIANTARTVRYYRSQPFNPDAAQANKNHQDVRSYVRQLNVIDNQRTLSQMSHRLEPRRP
Screen size: about 16,000 compounds; about 40 (0.2%) were called active. Inconclusive results (about 1%) are left out. What follows is part of a selection rich in actives, with near analogues and random picks from the rest.
# activation values compiled below
# unit: % | format: bare number

Check out these entries, answers already filled in.
CN1C2CC(OC(=O)C(CO)c3ccccc3)CC1C(O)C2 (stereo unspecified) : -0.713
CN1CCC2(CC1)CCN(C(=O)c1ccco1)CC2 : 1.62
NCC(O)c1cccc(O)c1 (stereo unspecified) : -5.63

Field request: activation | item: "CN1CCCC2(CCN(C(=O)c3ccco3)CC2)C1"
0.865

Try the compound "c1cnc(N2CC3(CCNCC3)C2)nc1"
2.58

Try the compound "CCOC(=O)[C@]12Cc3c(cc(OC)c(OC)c3OC)[C@H]1N(Cc1ccccc1)C(=O)c1ccccc12"
-19.3
